The reported numbers originate from ChEMBL document CHEMBL2094269.

- assay summary: DNDI: Cytotoxicity against human MRC-5 lung fibroblast cells.
- experimental setup: IC50
recorded metric: IC50

[[record]]
item_smiles = "CN1CCC(=NNC(=O)c2cc(-c3ccc(Cl)cc3)nc3ccccc23)CC1"
result = "> 41.7 µM"

[[record]]
item_smiles = "CN1C/C(=C/c2ccc(C#N)cc2)C(=O)/C(=C/c2ccc(C#N)cc2)C1"
result = "> 20.8 µM"

[[record]]
item_smiles = "COCc1cc(O)nc(Nc2nc3ccc(C)cc3o2)n1"
result = "> 20.8 µM"


Lab note: next molecule to report on.
In: GET /values?readout=IC50&item= Cc1c2[nH]c3ccccc3c2c2c([n+]1C)CC(C)(C)CC2
Out: > 41.7 µM

----------
- assay summary: DNDI: Cytotoxicity against human MRC-5 lung fibroblast cells.
- experimental setup: IC50
pIC50: −log10 of the molar value.
pIC50 values for the compounds below.

Consider the worked cases shown below.
[[record]]
compound = "CCOC(=O)c1ccc(NC(=O)C2CCCN(C(=O)c3ccccc3F)C2)cc1 (stereo not given)"
result = "< 4.68"

[[record]]
compound = "CC1(C)CC(N2COc3c(cc(Cl)c4cccnc34)C2)CC(C)(C)N1"
result = "< 4.68"

[[record]]
compound = "CN(C)CCn1c2ccccc2c2cnc(N)c(C#N)c21"
result = "< 5.38"


In: Record request: pIC50 value, item O=C(NCCc1csc(-c2cccc(F)c2)n1)c1cccs1
Out: < 4.38

In: For COc1ccc(-c2cs/c(=N\CC3CCNCC3)n2-c2ccccc2)cc1 then?
Out: < 4.68

In: Cn1c(-c2cccnc2)nn(C2CC(=O)C3OCC2O3)c1=S (stereo not given) , same question.
Out: < 4.68

In: Next compound: CCC1CCCCN1S(=O)(=O)c1ccc(-c2ccno2)cc1OC (stereo not given)
Out: < 4.38

In: Please do the same for O=C(NCCc1nc(-c2ccccc2)cs1)C1(c2ccccc2)CC1 as well.
Out: < 4.38

In: Again, but for CCn1nc(/C=C/c2ccccc2)[n+]([O-])c2c(=O)n(C)c(=O)nc1-2
Out: < 4.68

In: Now consider C/C(=N\NC(=O)c1cccc2ccccc12)c1ccccn1 .
Out: < 5.38

----------
Listed here: items and their measured IC50.
- assay summary: DNDI: Cytotoxicity against human MRC-5 lung fibroblast cells.
- experimental setup: IC50

[[record]]
compound = "N/C(=N\\OC(=O)c1ccccc1Br)c1ccccc1"
result = "> 20.8 µM"

[[record]]
compound = "CC(C)(C)c1ccc2c(c1)OCCOCCOCCOCCO2"
result = "> 20.8 µM"

[[record]]
compound = "O=C(O)c1ccc(NNc2c3ccccc3nc3ccccc23)cc1"
result = "> 41.7 µM"

[[record]]
compound = "N=c1n(CCc2ccccc2)c2ccccc2n1Cc1ccccc1F"
result = "> 20.8 µM"

[[record]]
compound = "COc1ccc(OCC(=O)N/N=C(\\C)c2ccccn2)cc1"
result = "> 20.8 µM"

[[record]]
compound = "Cc1ccc(-c2cnc3ccccc3[n+]2C)c(C)c1"
result = "> 20.8 µM"


In: Entry under review: COc1ccccc1C(=O)c1sc(Nc2ccc3c(c2)OCCO3)nc1N . Reported IC50?
Out: > 1.04 µM

In: Same read-out for O=C1CN(Cc2ccccc2)c2ccccc2N1 ?
Out: 8.3 µM

In: Note, next up: CS(=O)(=O)/C=C(\c1ccccc1)c1ccncc1
Out: > 20.8 µM

In: What do we get for Clc1cc2c(c3ncccc13)OCN(CCC1=CCCCC1)C2 ?
Out: > 20.8 µM

In: Please answer likewise for O=C(N/N=C/c1ccc(-c2ccccc2Cl)o1)c1ccccc1
Out: > 41.7 µM

----------
Listed below: IC50 values for each entry.
- assay summary: DNDI: Cytotoxicity against human MRC-5 lung fibroblast cells.
- experimental setup: IC50

In: Look up IC50 for this compound: c1ccc(NN=C(c2ccccn2)c2ccccn2)nc1
Out: > 1.04 µM

In: Can you check Cc1ccc2[nH]c3c(c2c1)CCCC3CN (configuration not stated) next?
Out: > 10.4 µM

----------
- assay summary: DNDI: Cytotoxicity against human MRC-5 lung fibroblast cells.
- experimental setup: IC50
recorded metric: IC50

Solved cases (6 shown):
[[record]]
molecule = "COc1ccc2[nH]c(C)c(CCNCc3cn(C)c4ccccc34)c2c1"
result = "> 20.8 µM"

[[record]]
molecule = "Cc1n[nH]c(C)c1/N=N/N1CCOCC1"
result = "3.61 µM"

[[record]]
molecule = "O=C(N/N=C\\c1cc(Cl)ccc1O)c1cccs1"
result = "> 41.7 µM"

[[record]]
molecule = "CCN(CC)c1ccc(C(Nc2ccccn2)c2ccc3cccnc3c2O)cc1 (stereo unspecified)"
result = "> 20.8 µM"

[[record]]
molecule = "Cc1nnc(-c2cc(S(=O)(=O)NCc3ccc4c(c3)OCO4)c[nH]2)o1"
result = "> 41.7 µM"

[[record]]
molecule = "COc1cc(OC)nc(-n2ncc(Cl)c(Cl)c2=O)n1"
result = "4.53 µM"


In: State the recorded IC50 for this entry: C=CCN1C(=O)C(O)(CC(=O)c2ccco2)c2cc(Br)ccc21 (stereo unspecified)
Out: > 41.7 µM

In: Then COc1cc(-n2nnn(C3CC(=O)C4OCC3O4)c2=S)c(OC)cc1Cl (stereo unspecified) ?
Out: > 20.8 µM

----------
- assay summary: DNDI: Cytotoxicity against human MRC-5 lung fibroblast cells.
- experimental setup: IC50
pIC50: −log10 of the molar value.
recorded metric: pIC50

Some solved cases for reference:
[[record]]
item_smiles = "COC(=O)c1cn(NC(=O)c2ccccn2)c(=O)c2ccccc12"
result = "< 4.98"

[[record]]
item_smiles = "Cn1ccc(/C=C2/CCC/C(=C\\c3ccn(C)n3)C2=O)n1"
result = "< 4.68"

[[record]]
item_smiles = "COc1cc(C(=O)Nc2nc(-c3ccccn3)cs2)cc(OC)c1OC"
result = "< 4.38"


In: Query (molecule): CN1CCN(Nc2ccnc3cc4ccccc4cc23)CC1 ; field requested: pIC50
Out: 5.47

In: Now try CN1c2ccccc2N(C)C1c1ccc(O)cc1 .
Out: < 4.38

In: NCCc1c(-c2ccccc2)n(-c2ccccc2)c2ccccc12 ?
Out: < 4.68

In: Entry CCc1cccc(-n2nnnc2N2CCN(C(=O)Nc3ccc(F)cc3)CC2)c1 please
Out: < 4.38

In: What about COc1ccc(/C(N)=N/OC(=O)N2CCOCC2)cc1OC ?
Out: < 4.68

In: // repeat for NCC12CC3CC(C1)CC(c1ccc(Br)cc1)(C3)C2 and report
Out: 5.17

In: Similarly, O=C1c2ccccc2C(=O)c2c1ccc1nonc21 ?
Out: < 4.68

----------
- assay summary: DNDI: Cytotoxicity against human MRC-5 lung fibroblast cells.
- experimental setup: IC50
pIC50: −log10 of the molar value.
recorded metric: pIC50

[[record]]
compound = "OC12C[C@@H](C3CO[C@@H]1O3)n1nnnc1N2"
result = "< 4.68"

[[record]]
compound = "Cc1ccc2oc(SCC(=O)Nc3nc4ccccc4s3)nc2n1"
result = "< 4.68"

[[record]]
compound = "O=C(NC(=S)NNC(=S)N/N=C/c1ccccc1)c1ccccc1"
result = "< 4.68"

[[record]]
compound = "CC(C)(C)c1ccc(/C(=N\\NC(=N)N)c2ccc(Cl)cc2)cc1"
result = "< 4.68"


Now turn to the next compound.
In: Reported pIC50 for Cc1cc2c(c(=O)o1)C(c1ccc(Br)s1)C(C#N)=C(N)O2 (stereo not given) : what is it?
Out: < 4.38

----------
// reported pIC50 for each item listed
- assay summary: DNDI: Cytotoxicity against human MRC-5 lung fibroblast cells.
- experimental setup: IC50
pIC50: −log10 of the molar value.

The following compounds have reported results that may help.
[[record]]
compound = "C[N+](C)(C)c1nc(N2CCOCC2)nc(N(c2ccccc2)c2ccccc2)n1"
recorded_metric = "pIC50"
result = "< 4.38"

[[record]]
compound = "NCC(O)(c1ccc(Cl)cc1)c1ccc(Cl)cc1"
recorded_metric = "pIC50"
result = "< 4.68"


In: # lookup: pIC50 of Cc1ccc(C23CC4CC(CC(CN)(C4)C2)C3)cc1C
Out: < 4.68

In: Next: COc1ccc(C(=N)NOC(=O)c2cccs2)cc1
Out: < 4.38

In: Okay, and COC(=O)c1[nH]cc2c3cccnc3c3ncccc3c12 ?
Out: 6.23

In: Can you handle N=c1n(CCOc2ccccc2)c2ccccc2n1CCN1CCCCC1 next?
Out: < 4.68

In: // same read-out, input: CC(NCCC(c1ccccc1)C1CCOC(C)(C)C1)c1ccccc1 (centres undefined)
Out: < 4.38

In: Next up: Cc1cc(C(=O)N/N=C/c2c(O)ccc3ccccc23)c2ccccc2n1
Out: < 5.38

In: Queued: COCc1cc(CN2CCN(c3ccccc3OC)CC2)c(O)c2ncccc12
Out: 5.80
